# Test system: HCT116
# assay-summary: Soft agar assay, IC50 of single agents in HCT116
# Format: cell-based
# test-parameters: Homo sapiens, HCT-116
Please go through the items and note down their IC50.
State the answer as a number, implicitly in nM.

Give me measured IC50, please, for this compound: `C=C1C[C@@H]2CC[C@@]34C[C@H]5O[C@H]6[C@@H](O3)[C@H]3O[C@H](CC[C@@H]3O[C@H]6[C@H]5O4)CC(=O)C[C@@H]3[C@@H](OC)[C@@H](C[C@H](O)CN)O[C@H]3C[C@H]3O[C@@H](CC[C@@H]1O2)C[C@@H](C)C3=C.CS(=O)(=O)O` 1

Note down IC50 recorded for `N#CCCNc1nonc1-c1nc2ccccc2n1CC(=O)c1ccc(N)cc1` 18

Origin of measurements: patent US11419856B2
